This listing pairs molecules with measured composite z-score.
System: Sam68 (KHDRBS1)
assay overview: Sam68 small-molecule binders, primary screen, biochemical, small-molecule microarray, 635 nm fluorescence (AID 1125);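 note: score merges 667 nm channel intensity with signal to noise over triplicate slides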
condition: small-molecule microarray binding, higher = more signal

[
  {
    "molecule": "O=C(CS)NCCCCCCNC(=O)[C@@H]1C[C@@H]2C(=O)N3CCC[C@H]3C(=O)N2[C@@H]1c1ccc(O)cc1",
    "composite z-score": 0.5
  },
  {
    "molecule": "CC(C)N1CC=CC23O[C@@H]4C=CCOC(=O)[C@@H]4[C@H]2C(=O)N(CCO)[C@@H]3C1=O (stereo partly drawn)",
    "composite z-score": 0.557
  },
  {
    "molecule": "C=CCOC(=O)[C@@H]1[C@H]2C(=O)O[C@H](c3ccccc3)[C@H](c3ccccc3)N2[C@H](c2ccc(OCCOC(=O)[C@@H]3C[C@@H]4C(=O)NCC(=O)N4[C@@H]3c3cccc(OCCO)c3)cc2)[C@@]12C(=O)Nc1ccc(I)cc12",
    "composite z-score": 1.3
  }
]

----------
test target: Neurogenic locus notch homolog protein 2 (Homo sapiens) (UniProt Q04721)
Sequence (Q04721 whole entry, looked up): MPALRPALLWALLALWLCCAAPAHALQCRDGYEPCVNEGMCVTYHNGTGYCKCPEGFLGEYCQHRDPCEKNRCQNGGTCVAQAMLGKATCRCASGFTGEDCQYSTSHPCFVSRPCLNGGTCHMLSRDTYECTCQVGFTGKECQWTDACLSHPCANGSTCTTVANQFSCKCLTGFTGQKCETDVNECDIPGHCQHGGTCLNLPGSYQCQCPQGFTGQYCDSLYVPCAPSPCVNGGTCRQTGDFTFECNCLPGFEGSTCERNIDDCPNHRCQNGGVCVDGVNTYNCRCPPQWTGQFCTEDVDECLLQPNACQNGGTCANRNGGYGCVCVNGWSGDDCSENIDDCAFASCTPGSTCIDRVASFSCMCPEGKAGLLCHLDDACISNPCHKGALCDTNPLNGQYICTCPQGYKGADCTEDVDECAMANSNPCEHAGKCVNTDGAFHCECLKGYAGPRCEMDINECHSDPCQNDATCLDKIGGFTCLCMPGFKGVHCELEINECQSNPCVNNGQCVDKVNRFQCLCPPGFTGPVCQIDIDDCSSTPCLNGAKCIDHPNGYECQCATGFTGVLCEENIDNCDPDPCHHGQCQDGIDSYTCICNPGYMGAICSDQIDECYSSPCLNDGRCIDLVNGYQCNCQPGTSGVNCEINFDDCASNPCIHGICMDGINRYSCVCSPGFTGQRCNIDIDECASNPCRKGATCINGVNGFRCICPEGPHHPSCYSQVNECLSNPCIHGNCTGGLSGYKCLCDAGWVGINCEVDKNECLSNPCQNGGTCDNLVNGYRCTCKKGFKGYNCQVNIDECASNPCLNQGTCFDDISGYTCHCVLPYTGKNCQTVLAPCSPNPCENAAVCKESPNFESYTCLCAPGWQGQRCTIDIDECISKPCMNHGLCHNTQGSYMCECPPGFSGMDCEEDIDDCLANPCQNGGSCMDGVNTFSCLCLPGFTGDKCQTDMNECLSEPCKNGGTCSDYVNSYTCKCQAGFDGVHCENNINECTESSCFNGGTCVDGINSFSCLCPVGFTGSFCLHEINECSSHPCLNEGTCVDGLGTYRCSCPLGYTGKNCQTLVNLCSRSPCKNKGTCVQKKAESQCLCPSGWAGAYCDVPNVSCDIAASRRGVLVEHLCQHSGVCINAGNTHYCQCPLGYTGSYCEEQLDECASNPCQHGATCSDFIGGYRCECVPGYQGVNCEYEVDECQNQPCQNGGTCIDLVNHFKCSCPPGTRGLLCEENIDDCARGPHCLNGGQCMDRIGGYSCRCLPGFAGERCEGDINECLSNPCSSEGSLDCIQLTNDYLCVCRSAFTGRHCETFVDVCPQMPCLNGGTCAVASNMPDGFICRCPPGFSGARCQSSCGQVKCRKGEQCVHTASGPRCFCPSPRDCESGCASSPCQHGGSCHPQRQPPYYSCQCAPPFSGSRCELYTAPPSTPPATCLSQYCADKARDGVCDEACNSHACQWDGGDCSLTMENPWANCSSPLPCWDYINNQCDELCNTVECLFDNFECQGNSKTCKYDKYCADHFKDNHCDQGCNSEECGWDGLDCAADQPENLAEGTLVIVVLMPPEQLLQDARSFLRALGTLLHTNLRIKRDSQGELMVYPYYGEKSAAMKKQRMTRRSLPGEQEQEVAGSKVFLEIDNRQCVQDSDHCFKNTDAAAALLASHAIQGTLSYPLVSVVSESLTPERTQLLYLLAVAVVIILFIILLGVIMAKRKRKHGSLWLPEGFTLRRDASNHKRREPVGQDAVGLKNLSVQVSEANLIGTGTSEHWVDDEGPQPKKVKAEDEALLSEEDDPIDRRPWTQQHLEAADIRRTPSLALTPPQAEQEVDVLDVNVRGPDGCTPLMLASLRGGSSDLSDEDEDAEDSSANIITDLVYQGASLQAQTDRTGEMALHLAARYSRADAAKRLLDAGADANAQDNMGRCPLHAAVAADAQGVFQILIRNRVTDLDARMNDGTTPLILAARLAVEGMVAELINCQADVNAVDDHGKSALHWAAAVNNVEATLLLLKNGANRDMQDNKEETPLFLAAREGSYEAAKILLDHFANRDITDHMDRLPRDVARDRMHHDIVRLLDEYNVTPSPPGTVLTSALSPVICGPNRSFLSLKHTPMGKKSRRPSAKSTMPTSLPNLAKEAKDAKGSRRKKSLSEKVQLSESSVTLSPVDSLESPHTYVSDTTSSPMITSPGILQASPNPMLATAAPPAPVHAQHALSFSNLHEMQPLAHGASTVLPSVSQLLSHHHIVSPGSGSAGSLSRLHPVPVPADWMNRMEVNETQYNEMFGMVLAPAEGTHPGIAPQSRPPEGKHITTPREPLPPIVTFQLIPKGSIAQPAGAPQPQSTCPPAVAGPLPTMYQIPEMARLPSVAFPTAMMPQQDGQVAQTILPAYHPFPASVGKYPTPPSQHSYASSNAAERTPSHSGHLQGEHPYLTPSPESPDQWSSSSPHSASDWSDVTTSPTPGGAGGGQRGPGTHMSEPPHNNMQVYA
assay overview: Notch2 binders on small-molecule microarrays, primary screen, biochemical, small-molecule microarray, 635 nm fluorescence, stem cell growth factors (AID 1073)
condition: Notch2 binding, higher = more signal
# binarize composite z-score: threshold 0.3 inclusive, high side 1 (yes), low side 0 (no)

[
  {
    "molecule": "COc1cc2c(cc1OC)CN(C(=O)[C@@H]1[C@H]3C(=O)O[C@H](c4ccccc4)[C@H](c4ccccc4)N3[C@H](c3ccccc3OCCO)[C@@]13C(=O)Nc1ccc(C#CCNC(N)=O)cc13)CC2",
    "assigned category": "1 (yes)"
  },
  {
    "molecule": "COC(=O)C(CC#Cc1ccc2c(c1)[C@]1(C(=O)N2)[C@H](C(=O)NC[C@H](O)c2ccccc2)[C@H]2C(=O)O[C@H](c3ccccc3)[C@H](c3ccccc3)N2[C@@H]1c1ccc(OCCO)cc1)C(=O)OC",
    "assigned category": "1 (yes)"
  },
  {
    "molecule": "COCCOC(=O)N1C(=O)[C@@]2(c3cc(C#CCNC(N)=O)ccc31)[C@H](c1ccccc1OCCO)N1[C@H](c3ccccc3)[C@H](c3ccccc3)OC(=O)[C@H]1[C@@H]2C(N)=O",
    "assigned category": "1 (yes)"
  },
  {
    "molecule": "O=C1OCC=C[C@H]2OC34C=CCN(c5ccc(Cl)cc5)C(=O)[C@H]3N(CCCCCCO)C(=O)[C@@H]4[C@@H]12 (stereo not given in full)",
    "assigned category": "0 (no)"
  }
]

----------
assay overview: small-molecule binders of probe aNOTCH3, primary screen, biochemical, small-molecule microarray, 635/667 nm fluorescence (AID 1120);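 note: probe is a biotin-tagged antibody raised against NOTCH3 rather than NOTCH3 protein; score merges spot fluorescence near 667 nm with spot signal to noise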
condition: higher = more signal
Catalogue of composite z-score values

[
  {
    "molecule": "CN(C)CCCNC(=O)[C@@]1(Cc2ccccc2I)c2ccccc2C(=O)N(Cc2ccccc2C(F)(F)F)[C@H]1c1ccc(CO)cc1",
    "composite z-score": -0.286
  },
  {
    "molecule": "CC(C)=CCCC(C)=CC(O)C1C=CC2C(=O)N(c3ccccc3)C(=O)C2N1Nc1ccccc1 (centres undefined)",
    "composite z-score": 0.461
  },
  {
    "molecule": "C=C(CCCC)C(=O)CC[C@H](OC(=O)c1cccnc1)c1cccc(OCCO)c1",
    "composite z-score": -0.0242
  },
  {
    "molecule": "NCCCCCCNC(=O)[C@H]1C[C@H]2C(=O)NCC(=O)N2[C@H]1c1cccc(OCCO)c1",
    "composite z-score": -0.0311
  }
]
